# measured_on: human glucagon receptor (human) (UniProt P47871)
# Sequence (P47871 26-477): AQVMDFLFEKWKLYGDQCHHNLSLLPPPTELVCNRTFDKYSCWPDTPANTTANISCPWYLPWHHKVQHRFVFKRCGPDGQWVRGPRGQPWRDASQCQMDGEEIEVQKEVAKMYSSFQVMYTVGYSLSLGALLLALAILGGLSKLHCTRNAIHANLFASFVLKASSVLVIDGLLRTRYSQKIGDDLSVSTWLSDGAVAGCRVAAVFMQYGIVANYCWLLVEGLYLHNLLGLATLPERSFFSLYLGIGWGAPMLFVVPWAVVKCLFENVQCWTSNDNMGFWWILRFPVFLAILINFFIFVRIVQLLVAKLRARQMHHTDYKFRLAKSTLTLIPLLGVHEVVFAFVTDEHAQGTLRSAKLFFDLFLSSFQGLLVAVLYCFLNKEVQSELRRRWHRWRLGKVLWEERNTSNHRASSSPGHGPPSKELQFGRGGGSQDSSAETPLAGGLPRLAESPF
# assay_method_text: cell-based or functional assay
Numbered stars: 1 amine (or outer) side, 2 acyl side, 3 side chain; on linkers, the order of the positions; unused ones are H or OH. Square brackets hold non-standard residues; d marks the D form. Side chains are listed from the residue outwards. * marks the point of attachment. C18 diacid = O=C(O)CCCCCCCCCCCCCCCCC(=O)*; γGlu = O=C(O)[C@H](CCC(=O)[*:2])N[*:1]; Stearoyl = CCCCCCCCCCCCCCCCCC(=O)*; Aib = CC(C)(N)C(=O)O
endpoint: EC50 (cAMP induction)

Here are 3 binders together with their reported answers.
YXQGTFTSDYSIALDKKAQRAFVNWLVAXKPSSGAPPPS (X at 2 and 29 = Aib; Lys 17 as K(Octadecanoyl-Dapa-Peg3-Peg3); C-terminal amide (-NH2)) [Compound 43]    0.036 nM
YXQGTFTSDYSIALDKKAQRAFVNWLVAXKPSSGAPPPS (X at 2 and 29 = Aib; Lys 17 as K(Octadecanoyl-isoGlu-Peg3-Peg3); C-terminal amide (-NH2)) [Compound 42]    0.032 nM
H-Y[Aib]QGTFTSDYSIYLEKK([Peg3-Peg3-γGlu-C18 diacid])AQRAFVEWLLRA-NH2 [Compound 51]    1.4 nM

Next binder, EC50 (cAMP induction) to be filled in.
State its EC50 (cAMP induction): H-Y[Aib]QGTFTSDLSIALEKK([Peg3-Peg3-γGlu-Stearoyl])AQRAFVEWLLAQK-NH2 [Compound 48]
0.19 nM

Numbers sourced from patent US10131702B2.
